Source listed as ChEMBL document CHEMBL1914406.

Listing of recorded IC50 by entry.
TEST PROTOCOL: Inhibition of cauliflower DNA polymerase alpha using poly(dA)/oligo(dT)18 (A/T = 2/1) and dTTP as the DNA template-primer and nucleotide substrate after 60 mins
Parameters: species or system Brassica oleracea var. botrytis

[
  {
    "QUERY SMILES": "CCCCCCCCCCCC(=O)Oc1cccc2c1C(=O)C=CC2=O",
    "IC50": "> 100 µM"
  },
  {
    "QUERY SMILES": "CCCCCCCC/C=C\\CCCCCCCC(=O)Oc1cccc2c1C(=O)C=CC2=O",
    "IC50": "> 200 µM"
  }
]
